system.name: ATF6B (Homo sapiens, UniProt Q99941)
Sequence (Q99941 325-388 limits assumed): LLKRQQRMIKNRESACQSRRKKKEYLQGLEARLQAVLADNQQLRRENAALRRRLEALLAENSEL
method: Direct-binding FRET assay
Parameters: made in house
measurement.parameters: 37°C; C-terminal rhodamine design; repeat 1; read-out: Kd
pKd: −log10 of the molar value. Where no end group is shown, it is not given here.

{"residues": "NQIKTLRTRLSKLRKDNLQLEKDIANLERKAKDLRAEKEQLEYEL [ATF4-d1]", "pKd": "< 5.30"}
{"residues": "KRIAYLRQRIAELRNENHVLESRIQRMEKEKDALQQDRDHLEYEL [ATF5-d1]", "pKd": "< 5.30"}
{"residues": "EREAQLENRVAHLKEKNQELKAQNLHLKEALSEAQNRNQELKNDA [XBP1-d1]", "pKd": "< 6.00"}

----------
system.name: MAFB (Homo sapiens, UniProt Q9Y5Q3)
method: Direct-binding FRET assay
Set-up: made in house
measurement.parameters: Kd, 4°C; C-terminal rhodamine design; mean or single
Where no end group is shown, it is not given here.

{"residues": "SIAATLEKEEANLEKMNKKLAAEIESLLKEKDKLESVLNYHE [JUN-d1]", "system.name": "MAFB (Homo sapiens, UniProt Q9Y5Q3)", "Kd": "0.326 µM"}

----------
Property: Kd; scope: individual sequences
system.name: ATF3 (Homo sapiens, UniProt P18847)
Construct: made in house
method: Direct-binding FRET assay
measurement.parameters: 23°C; N-terminal rhodamine design; mean or single; read-out: Kd
Where no end group is shown, it is not given here.

{"residues": "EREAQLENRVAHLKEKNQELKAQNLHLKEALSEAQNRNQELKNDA [XBP1-d1]", "system.name": "ATF3 (Homo sapiens, UniProt P18847)", "Kd": "> 1000 nM"}
{"residues": "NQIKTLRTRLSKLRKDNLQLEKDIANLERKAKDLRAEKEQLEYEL [ATF4-d1]", "system.name": "ATF3 (Homo sapiens, UniProt P18847)", "Kd": "> 1000 nM"}
{"residues": "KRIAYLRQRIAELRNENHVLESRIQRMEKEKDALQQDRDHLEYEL [ATF5-d1]", "system.name": "ATF3 (Homo sapiens, UniProt P18847)", "Kd": "> 1000 nM"}

----------
system.name: ATF3 (Homo sapiens, UniProt P18847)
Construct: made in house
Sequence (P18847 86-149 limits assumed): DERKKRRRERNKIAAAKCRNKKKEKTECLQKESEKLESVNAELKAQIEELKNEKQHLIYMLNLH
method: Direct-binding FRET assay
measurement.parameters: 23°C; C-terminal rhodamine design; repeat 1
Method: The direct binding assay was performed manually in 384-well plates and is similar to a previously described assay. Wells were filled with 20 μL of 1 mM TCEP-HCl. […] Briefly, the Kd of the designed peptide homodimer was experimentally determined and used with previously determined target homodimer Kd values to determine the heterodimer Kd. […] A minimum 15% change in the donor fluorescence upon titrating the acceptor peptide from 0 to 1000 nM was required for a fit to be attempted. […]
pKd: −log10 of the molar value. Where no end group is shown, it is not given here.

{"residues": "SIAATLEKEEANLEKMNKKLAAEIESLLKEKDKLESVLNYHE [JUN-d1]", "pKd": "< 6.00"}

----------
system.name: CREB3 (Homo sapiens)
Construct: made in house
Sequence (O43889 150-213 limits assumed): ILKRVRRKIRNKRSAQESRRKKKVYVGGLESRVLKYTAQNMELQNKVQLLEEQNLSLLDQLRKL
method: Direct-binding FRET assay
measurement.parameters: 4°C; N-terminal rhodamine design; mean or single; read-out: Kd
pKd: −log10 of the molar value. Where no end group is shown, it is not given here.

{"residues": "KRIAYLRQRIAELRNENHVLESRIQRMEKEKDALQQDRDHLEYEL [ATF5-d1]", "system.name": "CREB3 (Homo sapiens)", "pKd": "< 6.00"}
{"residues": "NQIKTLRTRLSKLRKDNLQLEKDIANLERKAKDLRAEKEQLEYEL [ATF4-d1]", "system.name": "CREB3 (Homo sapiens)", "pKd": "< 6.00"}
{"residues": "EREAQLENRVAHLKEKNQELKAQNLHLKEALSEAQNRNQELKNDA [XBP1-d1]", "system.name": "CREB3 (Homo sapiens)", "pKd": "< 6.00"}

----------
system.name: ATF3 (Homo sapiens, UniProt P18847)
Construct: made in house
method: Direct-binding FRET assay
measurement.parameters: 37°C; N-terminal rhodamine design; mean or single
Where no end group is shown, it is not given here.
experimental.endpoint: Kd

{"residues": "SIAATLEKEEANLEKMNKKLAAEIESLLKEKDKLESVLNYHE [JUN-d1]", "experimental.endpoint": "Kd", "experimental.value": "> 1000 nM"}

----------
system.name: CREB3L3 (Homo sapiens, UniProt Q68CJ9)
Construct: made in house
Sequence (Q68CJ9 243-306 limits assumed): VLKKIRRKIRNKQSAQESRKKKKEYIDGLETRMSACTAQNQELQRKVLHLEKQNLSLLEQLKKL
method: Direct-binding FRET assay
measurement.parameters: 23°C; N-terminal rhodamine design; mean or single
pKd: −log10 of the molar value. Where no end group is shown, it is not given here.
experimental.endpoint: pKd

{"residues": "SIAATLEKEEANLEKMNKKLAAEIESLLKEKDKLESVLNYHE [JUN-d1]", "experimental.value": "< 6.00"}

----------
system.name: CREB1 (Homo sapiens, UniProt P16220)
Construct: made in house
method: Direct-binding FRET assay
measurement.parameters: 4°C; C-terminal rhodamine design; mean or single; read-out: Kd
Where no end group is shown, it is not given here.

{"residues": "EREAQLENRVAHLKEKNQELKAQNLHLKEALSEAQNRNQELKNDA [XBP1-d1]", "value.modifier": ">", "Kd [nM]": 5000}
{"residues": "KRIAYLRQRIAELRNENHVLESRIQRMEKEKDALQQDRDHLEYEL [ATF5-d1]", "value.modifier": "=", "Kd [nM]": 133}

----------
system.name: NFE2L2 (Homo sapiens)
Construct: made in house
method: Direct-binding FRET assay
measurement.parameters: 4°C; N-terminal rhodamine design; mean or single; read-out: Kd
pKd: −log10 of the molar value. Where no end group is shown, it is not given here.

{"residues": "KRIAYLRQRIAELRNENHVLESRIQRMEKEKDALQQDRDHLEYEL [ATF5-d1]", "system.name": "NFE2L2 (Homo sapiens)", "pKd": "< 6.00"}
{"residues": "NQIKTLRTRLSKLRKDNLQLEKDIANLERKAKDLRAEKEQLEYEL [ATF4-d1]", "system.name": "NFE2L2 (Homo sapiens)", "pKd": 7.32}
{"residues": "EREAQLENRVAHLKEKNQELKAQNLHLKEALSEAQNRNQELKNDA [XBP1-d1]", "system.name": "NFE2L2 (Homo sapiens)", "pKd": "< 6.00"}

----------
system.name: BACH2 (Homo sapiens, UniProt Q9BYV9)
Sequence (Q9BYV9 646-709 limits assumed): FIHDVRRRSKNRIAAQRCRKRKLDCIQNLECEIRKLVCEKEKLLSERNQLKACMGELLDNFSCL
method: Direct-binding FRET assay
Design: made in house
measurement.parameters: 4°C; C-terminal fluorescein design as donor, TAMRA target titrated; read-out: Kd
pKd: −log10 of the molar value. Where no end group is shown, it is not given here.

{"residues": "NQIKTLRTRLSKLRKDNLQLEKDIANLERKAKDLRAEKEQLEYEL [ATF4-d1]", "system.name": "BACH2 (Homo sapiens, UniProt Q9BYV9)", "pKd": "< 6.00"}
{"residues": "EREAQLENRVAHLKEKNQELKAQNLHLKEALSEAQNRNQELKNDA [XBP1-d1]", "system.name": "BACH2 (Homo sapiens, UniProt Q9BYV9)", "pKd": "< 6.00"}

----------
system.name: MAFF (Homo sapiens)
Construct: made in house
Sequence (Q9ULX9 51-114 limits assumed): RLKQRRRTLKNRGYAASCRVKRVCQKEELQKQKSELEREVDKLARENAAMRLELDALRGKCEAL
method: Direct-binding FRET assay
measurement.parameters: 23°C; C-terminal rhodamine design; repeat 1; read-out: Kd
pKd: −log10 of the molar value. Where no end group is shown, it is not given here.

{"residues": "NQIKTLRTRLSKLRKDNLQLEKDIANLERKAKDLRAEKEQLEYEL [ATF4-d1]", "pKd": "< 5.30"}

----------
system.name: CREB3 (Homo sapiens, UniProt O43889)
Construct: made in house
method: Direct-binding FRET assay
measurement.parameters: 4°C; N-terminal rhodamine design; mean or single
pKd: −log10 of the molar value. Where no end group is shown, it is not given here.
experimental.endpoint: pKd

{"residues": "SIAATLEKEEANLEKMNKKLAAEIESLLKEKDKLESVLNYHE [JUN-d1]", "experimental.value": "< 6.00"}
